Tested on: T1, Full-length human NT5E (recombinant, in-house) (human, UniProt P21589 27-549)
T1 construct: also called hNT5E; hNT5EWT
T1 sequence: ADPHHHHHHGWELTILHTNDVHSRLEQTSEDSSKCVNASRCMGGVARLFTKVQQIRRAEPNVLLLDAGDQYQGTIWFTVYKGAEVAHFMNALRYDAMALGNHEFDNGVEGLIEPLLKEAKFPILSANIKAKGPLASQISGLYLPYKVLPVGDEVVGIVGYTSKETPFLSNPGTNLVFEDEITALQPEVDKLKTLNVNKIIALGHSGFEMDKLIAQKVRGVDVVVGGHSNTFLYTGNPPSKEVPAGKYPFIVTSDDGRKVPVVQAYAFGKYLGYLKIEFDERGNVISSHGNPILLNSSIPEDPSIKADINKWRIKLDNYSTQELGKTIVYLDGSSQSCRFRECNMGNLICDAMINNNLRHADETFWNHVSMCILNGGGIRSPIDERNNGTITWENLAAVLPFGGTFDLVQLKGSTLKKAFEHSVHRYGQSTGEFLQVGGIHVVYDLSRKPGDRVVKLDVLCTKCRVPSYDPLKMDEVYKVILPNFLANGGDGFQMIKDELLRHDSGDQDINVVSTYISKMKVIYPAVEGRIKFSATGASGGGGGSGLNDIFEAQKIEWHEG
Assay name: SPR, His-captured NT5E, no ATP
Measured attribute: Kd (nM)

binder="1789 AM32 Fab (Fab, V domains shown, also called Fab32) VH: EVQLVESGGGLVQPGGSLRLSCAASGFNVSYSSIHWVRQAPGKGLEWVARIRGNEGDTYYADSVKGRFTISADTSKNTAYLQMNSLRAEDTAVYYCARNYWGWYPFYYFAFDYWGQGTLVTV VL: DIQMTQSPSSLSASVGDRVTITCRASQSVSSAVAWYQQKPGKAPKLLIYSASSLYSGVPSRFSGSRSGTDFTLTISSLQPEDFATYYCQQGWDYPITFGQGTKVEIKR" endpoint_result=86

Value source: patent US20240199757A1
